From: ChEMBL document CHEMBL1129930

system: Mus musculus; experiment: Incidence of disease (mouse type II collagen) was scored as the percentage of animals within each experimental group that exhibited joint or limb inflammation on day 23 at intraperitoneal dose of 6 mg/kg; type: functional
measure: Animals

• Cc1c(CCc2ccc(C(=O)NC(CCC(=O)O)C(=O)O)cc2)cnc2nc(N)nc(N)c12 (stereo unspecified) = 38%
• CCCc1c(CNc2ccc(C(=O)NC(CCC(=O)O)C(=O)O)cc2)cnc2nc(N)nc(N)c12 (stereo unspecified) = 0%
• C=CCN(Cc1cnc2nc(N)nc(N)c2c1CC)c1ccc(C(=O)NC(CCC(=O)O)C(=O)O)cc1 (stereo unspecified) = 0%
• Cc1c(CNc2ccc(C(=O)NC(CCC(=O)O)C(=O)O)cc2)cnc2nc(N)nc(N)c12 (stereo unspecified) = 0%
• CCCCc1c(CNc2ccc(C(=O)NC(CCC(=O)O)C(=O)O)cc2)cnc2nc(N)nc(N)c12 (stereo unspecified) = 0%
• Cc1c(CN(C)c2ccc(C(=O)NC(CCC(=O)O)C(=O)O)s2)cnc2nc(N)nc(N)c12 (stereo unspecified) = 0%
• Cc1c(CCc2ccc(C(=O)NC(CCC(=O)O)C(=O)O)cn2)cnc2nc(N)nc(N)c12 (stereo unspecified) = 0%
• C=CCC(Cc1cnc2nc(N)nc(N)c2c1C)c1ccc(C(=O)NC(CCC(=O)O)C(=O)O)cc1 (stereo unspecified) = 0%
• Nc1nc(N)c2cc(CCc3ccc(C(=O)NC(CCC(=O)O)C(=O)O)cn3)cnc2n1 (stereo unspecified) = 0%
• C#CCN(Cc1cnc2nc(N)nc(N)c2c1CC)c1ccc(C(=O)NC(CCC(=O)O)C(=O)O)cc1 (stereo unspecified) = 0%
• CCC(Cc1cnc2nc(N)nc(N)c2c1)c1ccc(C(=O)NC(CCC(=O)O)C(=O)O)cc1 (stereo unspecified) = 12%
• C#CCN(Cc1cnc2nc(N)nc(N)c2c1C)c1ccc(C(=O)NC(CCC(=O)O)C(=O)O)cc1 (stereo unspecified) = 12%
• Cc1c(CNc2ccc(C(=O)NC(CCC(=O)O)C(=O)O)s2)cnc2nc(N)nc(N)c12 (stereo unspecified) = 12%
• CCc1c(CN(C)c2ccc(C(=O)NC(CCC(=O)O)C(=O)O)s2)cnc2nc(N)nc(N)c12 (stereo unspecified) = 0%
• Nc1nc(N)c2cc(CCc3ccc(C(=O)NC(CCC(=O)O)C(=O)O)cc3)cnc2n1 (stereo unspecified) = 12%
• CCCN(Cc1cnc2nc(N)nc(N)c2c1C)c1ccc(C(=O)NC(CCC(=O)O)C(=O)O)cc1 (stereo unspecified) = 0%
